# credit: BindingDB's records for doi:10.7270/Q22V2DK6

# pEC50 values compiled below
# tested.target: Caspase-7 (Homo sapiens, UniProt P55210)
# Sequence (P55210 24-198 limits assumed): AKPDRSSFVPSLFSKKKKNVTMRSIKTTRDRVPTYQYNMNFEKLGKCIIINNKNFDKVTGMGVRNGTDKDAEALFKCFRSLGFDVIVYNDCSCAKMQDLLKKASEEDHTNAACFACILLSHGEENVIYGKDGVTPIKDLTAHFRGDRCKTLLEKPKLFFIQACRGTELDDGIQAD
# Sequence (P55210 207-303 limits assumed): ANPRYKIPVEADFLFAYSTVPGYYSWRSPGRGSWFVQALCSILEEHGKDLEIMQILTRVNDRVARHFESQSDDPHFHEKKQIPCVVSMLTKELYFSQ
# assay.protocol: activation of caspase-7 zymogen – biochemical, absorbance, counter-screen for procaspase-3 activator project, dose response (AID 489013)
pEC50: −log10 of the molar value.
quantity.kind: pEC50

>>> print(df.to_string())
                                 smiles_str  quantity_kind  result
0  O=C(CC1=NC2(CCCC2)Cc2ccccc21)C(=O)NN=Cc1ccccc1O          pEC50  < 4.07
1  O=c1c2c(-c3ccccc3)[nH]n(-c3ccccc3)c-2c(O)n1-c1ccccc1          pEC50  < 4.07
